Target: purine nucleoside phosphorylase (PNP-4) (Homo sapiens, UniProt P00491)
Construct: using human erythrocyte as the enzyme source
Sequence (P00491 whole entry): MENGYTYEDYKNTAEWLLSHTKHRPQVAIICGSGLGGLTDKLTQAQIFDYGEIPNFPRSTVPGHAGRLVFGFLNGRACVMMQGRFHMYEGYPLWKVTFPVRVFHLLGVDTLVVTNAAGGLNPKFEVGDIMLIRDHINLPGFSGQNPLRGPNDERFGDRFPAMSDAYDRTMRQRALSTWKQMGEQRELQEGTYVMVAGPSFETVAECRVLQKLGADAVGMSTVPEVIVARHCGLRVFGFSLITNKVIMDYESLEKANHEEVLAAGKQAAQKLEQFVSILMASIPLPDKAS
Assay: PNP-4 enzyme assay (radiochemical, [14C]-hypoxanthine formation from [14C]inosine)
Details: human erythrocyte as enzyme source; activity table
pIC50: −log10 of the molar value.
measurementName: pIC50

>>> df
                                   molecule  op  measured
0  Nc1nc2c(Cc3ccsc3)c(I)[nH]c2c(=O)[nH]1 [Example 5]   <      4.52
1  Nc1nc2c(Cc3ccsc3)c(F)[nH]c2c(=O)[nH]1 [Example 8]   =      6.82
2  Nc1nc2c(Cc3ccsc3)c(Br)[nH]c2c(=O)[nH]1 [Example 3]   =      5.16
3  Nc1nc2c(Cc3ccsc3)c(Cl)[nH]c2c(=O)[nH]1 [Example 6]   =      5.56

Hello, the source for this data is patent US5236926A, in case you need it.
